The reported measurements were obtained from patent US10385057B2.

- targetOfAssay: FAAH (Homo sapiens, UniProt O00519)
- Construct: human prefrontal cortex or cell membrane fractions for human assays; from tissue
- Sequence (O00519 whole entry): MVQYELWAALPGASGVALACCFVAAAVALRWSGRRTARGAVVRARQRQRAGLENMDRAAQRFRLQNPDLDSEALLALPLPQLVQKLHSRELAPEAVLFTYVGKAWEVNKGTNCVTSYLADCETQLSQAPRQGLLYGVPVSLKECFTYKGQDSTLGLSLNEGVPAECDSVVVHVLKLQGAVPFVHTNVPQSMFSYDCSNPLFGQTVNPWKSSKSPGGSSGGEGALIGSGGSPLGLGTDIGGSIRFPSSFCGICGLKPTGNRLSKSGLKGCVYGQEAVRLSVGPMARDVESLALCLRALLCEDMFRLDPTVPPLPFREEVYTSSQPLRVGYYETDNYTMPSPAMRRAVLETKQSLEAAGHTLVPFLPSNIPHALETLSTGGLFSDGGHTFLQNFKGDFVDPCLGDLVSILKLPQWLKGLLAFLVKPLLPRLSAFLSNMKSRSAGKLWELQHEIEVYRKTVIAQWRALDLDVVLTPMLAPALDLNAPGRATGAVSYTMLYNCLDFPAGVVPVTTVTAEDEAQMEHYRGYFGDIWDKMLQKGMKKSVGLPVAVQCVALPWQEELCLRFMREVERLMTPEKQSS
- testDetails: In vitro competitive activity-based protein profiling, human FAAH
- Format: biochemical
- experimentalParameters: 10 μM, read-out: FAAH % inh. 10 μM (human)
Provide the reported inhibition at 10 µM of each item.

Look up inhibition at 10 µM of O=C(O)c1cnn(C(=O)N2CCC3(CCN(Cc4ccc(Cl)cc4)C3)C2)c1 (stereo not shown) [Example 48] and report it.
0 to 25%

Identify measured inhibition at 10 µM associated with O=C(O)c1cnn(C(=O)N2CC3CN(Cc4cc(N5CCCC5)cc(C(F)(F)F)c4)CC3C2)c1 (stereo not shown) [Example 198]
50 to 75%

Give the value of inhibition at 10 µM reported for the following: CN(Cc1cccc(Oc2ccccc2)c1)[C@H]1C[C@@H]2CN(C(=O)n3cc(C(=O)O)cn3)C[C@@H]2C1 [Example 188]
50 to 75%

Consider the compound O=C(O)c1cnn(C(=O)N2CCC3(CCN(Cc4cccc(Oc5ccccc5)c4)C3)C2)c1 (stereo not shown) [Example 185] and give its recorded inhibition at 10 µM.
25 to 50%

Give the reported inhibition at 10 µM for this compound. O=C(O)c1cnn(C(=O)N2CC3CN(Cc4ccc(C(F)(F)F)cc4)CC3C2)c1 (stereo not shown) [Example 47]
50 to 75%

Given CN(Cc1ccc(N2CCCC2)cc1C(F)(F)F)[C@@H]1C[C@@H]2CN(C(=O)n3cc(C(N)=O)cn3)C[C@@H]2C1 [Example 220] , respond with its inhibition at 10 µM.
≥ 75%

Tell me inhibition at 10 µM reported for O=C(O)c1cnn(C(=O)N2CC3CN(Cc4ccc(N5CCCC5)cc4C(F)(F)F)CC3C2)c1 (stereo not shown) [Example 197]
≥ 75%

----------
- targetOfAssay: FAAH (Mus musculus)
- Construct: mouse brain membrane fraction or cell lysates for mouse assays; from tissue
- Sequence (O08914 whole entry): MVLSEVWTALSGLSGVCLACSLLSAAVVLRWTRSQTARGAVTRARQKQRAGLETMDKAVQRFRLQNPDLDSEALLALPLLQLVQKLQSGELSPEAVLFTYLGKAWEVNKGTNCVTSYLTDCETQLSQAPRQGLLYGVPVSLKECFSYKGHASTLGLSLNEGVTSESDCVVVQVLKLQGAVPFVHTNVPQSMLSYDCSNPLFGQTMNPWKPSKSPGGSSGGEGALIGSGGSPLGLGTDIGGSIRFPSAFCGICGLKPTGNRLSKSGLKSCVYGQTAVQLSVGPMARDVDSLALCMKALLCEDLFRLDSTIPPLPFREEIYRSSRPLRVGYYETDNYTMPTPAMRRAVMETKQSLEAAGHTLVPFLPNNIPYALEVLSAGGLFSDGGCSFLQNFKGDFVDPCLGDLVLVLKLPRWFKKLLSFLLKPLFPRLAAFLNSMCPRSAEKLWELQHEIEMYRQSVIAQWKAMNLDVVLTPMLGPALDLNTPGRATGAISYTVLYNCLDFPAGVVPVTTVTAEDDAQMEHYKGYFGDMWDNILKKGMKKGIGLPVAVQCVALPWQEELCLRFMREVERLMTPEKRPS
- testDetails: In vitro competitive activity-based protein profiling, mouse FAAH
- Assay type: biochemical
Field: IC50. Provide a value for each of the molecules that follow.

Read the entry O=C(N1CCC2(CCN(Cc3ccccc3Cl)C2)C1)n1cc(Cl)cn1 (centres unmarked) and write its reported IC50.
≤ 100 nM

Give me measured IC50, please, for this molecule: COc1ccc(CN2CCC3(CCN(C(=O)n4cc(C(F)(F)F)cn4)C3)C2)cc1 (centres unmarked)
100 to 1000 nM

In one line, give reported IC50 of the entry `CNC(=O)c1cnn(C(=O)N2C[C@H]3C[C@@H](N(C)Cc4ccc(C(F)(F)F)cc4)C[C@H]3C2)c1` .
≤ 100 nM

Write down IC50 measured for item O=C(N1CCC2(CCN(Cc3cccc(C(F)(F)F)c3)C2)C1)n1cc(C(F)(F)F)cn1 (centres unmarked)
≤ 100 nM

Let me know recorded IC50 for O=C(N1CCC2(CCN(Cc3ccccc3Cl)C2)C1)n1cc(C(F)(F)F)cn1 (centres unmarked) , thanks.
≤ 100 nM

Determine from records and report IC50 for COc1ccc(CN2CC3CN(C(=O)n4cc(C(F)(F)F)cn4)CC3C2)cc1 (centres unmarked)
≤ 100 nM

Give reported IC50 value for O=C(N1CC2CN(Cc3ccc(Cl)cc3N3CCC4(CCOCC4)C3)CC2C1)n1cc(Cl)cn1 (centres unmarked)
1000 to 10000 nM

// fetch IC50 given entry `O=C(N1C[C@H]2C[C@H](NCc3ccc(Cl)cc3)C[C@H]2C1)n1cc(Cl)cn1`
≤ 100 nM

Specify reported IC50 for the molecule shown: O=C(N1CCC2(CCN(Cc3ccc(N4CCOCC4)cc3Cl)C2)C1)n1cc(Cl)cn1 (centres unmarked)
≤ 100 nM

Please supply the value of reported IC50 for the item `CN(Cc1ccccc1Cl)[C@@H]1C[C@@H]2CN(C(=O)n3cc(C(N)=O)cn3)C[C@@H]2C1`
≤ 100 nM

Indicate the recorded IC50 value for this molecule: CN(Cc1ccccc1Cl)[C@@H]1C[C@@H]2CN(C(=O)n3cc(Cl)cn3)C[C@@H]2C1 [Example 59]
≤ 100 nM

Give IC50 for `CC(=O)N(Cc1ccc(Cl)cc1)[C@@H]1C[C@@H]2CN(C(=O)n3cc(Cl)cn3)C[C@@H]2C1`
≤ 100 nM

Recall and state the measured IC50 for CN(Cc1ccccc1Cl)[C@@H]1C[C@@H]2CN(C(=O)n3cc(Cl)cn3)C[C@@H]2C1 [Example 58] .
≤ 100 nM

Could you please provide reported IC50 for Cc1cc(N2CCOCC2)ccc1CN1CC2CN(C(=O)n3cc(Cl)cn3)CC2C1 (centres unmarked) ? Thanks!
≤ 100 nM

Complete the entry with IC50 for O=C(c1cnn(C(=O)N2CC3CN(Cc4ccc(Cl)cc4)CC3C2)c1)N1CCCCC1 (centres unmarked)
100 to 1000 nM

Report IC50, nothing else, for this molecule: O=C(N1CCC2(CCN(Cc3cccc(Oc4ccccc4)c3)C2)C1)n1cc(Cl)cn1 (centres unmarked)
≤ 100 nM

Fill in reported IC50 for this entry: `CN(Cc1cccc(Cl)c1)[C@@H]1C[C@@H]2CN(C(=O)n3cc(Cl)cn3)C[C@@H]2C1`
≤ 100 nM

Specify IC50 for O=C(N1CCC2(CCN(Cc3ccc(N4CCOCC4)cc3)C2)C1)n1cc(Cl)cn1 (centres unmarked) and stop.
100 to 1000 nM

Annotate the molecule `O=C(N1C[C@H]2C[C@H](NCc3cccc(Cl)c3)C[C@H]2C1)n1cc(Cl)cn1` with its measured IC50.
≤ 100 nM

Return the recorded IC50 value; entry: O=C(c1cnn(C(=O)N2CC3CN(Cc4cccc(Cl)c4)CC3C2)c1)N1CCCCC1 (centres unmarked)
100 to 1000 nM

State its IC50: NC(=O)c1cnn(C(=O)N2CC3CN(Cc4ccc(C(F)(F)F)cc4)CC3C2)c1 (centres unmarked)
≤ 100 nM

In one line, give reported IC50 of the entry O=C(N1CC2CN(Cc3cccc(C(F)(F)F)c3)CC2C1)n1cc(C(F)(F)F)cn1 (centres unmarked) .
≤ 100 nM

State its IC50: `CN(Cc1ccc(C(F)(F)F)cc1)[C@@H]1C[C@@H]2CN(C(=O)n3cc(Cl)cn3)C[C@@H]2C1`
≤ 100 nM

Complete the entry with IC50 for O=C(N1CCC2(CCN(Cc3cccc(Cl)c3)C2)C1)n1cc(Cl)cn1 (single isomer, unassigned) [Example 133]
≤ 100 nM

Supply reported IC50 belonging to this molecule: O=C(N1CC2CN(Cc3ccccc3N3CCOCC3)CC2C1)n1cc(C(F)(F)F)cn1 (centres unmarked)
100 to 1000 nM

Provide only the value of recorded IC50 for NC(=O)c1cnn(C(=O)N2CC3CN(Cc4cc(Cl)cc(C(F)(F)F)c4)CC3C2)c1 (centres unmarked)
≤ 100 nM

Give recorded IC50. O=C(N1CC2CN(Cc3ccc(C(F)(F)F)cc3)CC2C1)n1cc(Cl)cn1 (centres unmarked)
≤ 100 nM

Dear colleague, please send me the reported IC50 for `CN(Cc1cccc(Oc2ccccc2)c1)[C@H]1C[C@@H]2CN(C(=O)n3cc(Cl)cn3)C[C@@H]2C1` when you can.
≤ 100 nM

Specify IC50 for O=C(N1CC2CN(Cc3ccc(F)cc3N3CCCC3)CC2C1)n1cc(Cl)cn1 (centres unmarked) and stop.
≤ 100 nM

----------
So I've got a bunch of compounds here, and I need their pIC50 values.
- targetOfAssay: FAAH (Mus musculus)
- Construct: mouse brain membrane fraction or cell lysates for mouse assays
- testDetails: In vitro competitive activity-based protein profiling, mouse FAAH
pIC50: −log10 of the molar value.

Answer with reported pIC50 of O=C(N1C[C@H]2C[C@@H](NCc3cccc(Cl)c3)C[C@H]2C1)n1cc(Cl)cn1 [Example 66]
≥ 7.00

Indicate the recorded pIC50 value for this compound: NC(=O)c1cnn(C(=O)N2CCC3(CCN(Cc4ccc(Cl)cc4)C3)C2)c1 (stereo not shown) [Example 37]
≥ 7.00

Provide only the value of recorded pIC50 for O=C(N1CC2CN(Cc3ccc(Cl)cc3N3CCCC3)CC2C1)n1cc(Cl)cn1 (stereo not shown) [Example 101]
6.00 to 7.00

Please look at this compound and report its pIC50: O=C(c1cnn(C(=O)N2CC3CN(Cc4ccc(Oc5ccc(Cl)cc5)cc4)CC3C2)c1)N1CCCC1 (stereo not shown) [Example 189]
≥ 7.00

Quickly give me recorded pIC50 for O=C(N1CC2CN(Cc3cccc(Cl)c3)CC2C1)n1cc(Cl)cn1 (stereo not shown) [Example 117]
≥ 7.00

Provide only the value of recorded pIC50 for CN(Cc1cccc(Oc2ccccc2)c1)[C@@H]1C[C@@H]2CN(C(=O)n3cc(Cl)cn3)C[C@@H]2C1 [Example 164]
≥ 7.00

Indicate its recorded pIC50; the compound in question is O=C(N1CC2CN(Cc3cccc(Cl)c3)CC2C1)n1cc(C(F)(F)F)cn1 (stereo not shown) [Example 149]
≥ 7.00

Output pIC50 of CC(=O)N(Cc1cccc(Cl)c1)[C@@H]1C[C@@H]2CN(C(=O)n3cc(Cl)cn3)C[C@@H]2C1 [Example 60]
≥ 7.00

Determine its reported pIC50: O=C(N1C[C@H]2C[C@@H](NCc3ccc(Cl)cc3)C[C@H]2C1)n1cc(Cl)cn1 [Example 71]
6.00 to 7.00

// fetch pIC50 given entry CN(Cc1cccc(C(F)(F)F)c1)[C@@H]1C[C@@H]2CN(C(=O)n3cc(Cl)cn3)C[C@@H]2C1 [Example 80]
≥ 7.00

Return reported pIC50. Input compound: O=C(N1C[C@H]2C[C@H](NCc3ccccc3Cl)C[C@H]2C1)n1cc(Cl)cn1 [Example 64]
≥ 7.00

Tell me measured pIC50 for O=C(c1cnn(C(=O)N2CC3CN(Cc4ccccc4Cl)CC3C2)c1)N1CCCCC1 (stereo not shown) [Example 1] please.
≥ 7.00

Could you please provide reported pIC50 for CN(Cc1ccc(C(F)(F)F)cc1)[C@@H]1C[C@@H]2CN(C(=O)n3cc(C(N)=O)cn3)C[C@@H]2C1 [Example 55] ? Thanks!
≥ 7.00

Query pIC50 for CNC(=O)c1cnn(C(=O)N2CC3CN(Cc4ccc(C(F)(F)F)cc4)CC3C2)c1 (stereo not shown) [Example 19]
≥ 7.00

Using the record for Cc1ccccc1CN1CCC2(CCN(C(=O)n3cc(C(F)(F)F)cn3)C2)C1 (stereo not shown) [Example 178] , state its measured pIC50.
6.00 to 7.00

Give me measured pIC50, please, for this compound: O=C(N1CCC2(CCN(Cc3ccc(Cl)c(Cl)c3)C2)C1)n1cc(Cl)cn1 (single isomer, unassigned) [Example 139]
≥ 7.00

Provide one value: measured pIC50 of O=C(N1CC2CN(Cc3ccccc3Cl)CC2C1)n1cc(Cl)cn1 (stereo not shown) [Example 116]
≥ 7.00

Query pIC50 for O=C(N1CCC2(CCN(Cc3ccc(Cl)cc3)C2)C1)n1cc(Cl)cn1 (stereo not shown) [Example 115]
6.00 to 7.00

Consider the compound Cc1cc(N2CCOCC2)ccc1CN1CCC2(CCN(C(=O)n3cc(Cl)cn3)C2)C1 (stereo not shown) [Example 138] and give its recorded pIC50.
≥ 7.00

Return pIC50 for the following compound: O=C(N1CCC2(CCN(Cc3ccc(Cl)c(Cl)c3)C2)C1)n1cc(Cl)cn1 (stereo not shown) [Example 127]
≥ 7.00

Give the reported value of pIC50 for this record: Cc1cc(-c2ccccc2)ccc1CN1CCC2(CCN(C(=O)n3cc(Cl)cn3)C2)C1 (stereo not shown) [Example 130]
≥ 7.00

Tell us which pIC50 value is on record for CC(=O)N1CCN(c2cc(F)ccc2CN2CC3CN(C(=O)n4cc(Cl)cn4)CC3C2)CC1 (stereo not shown) [Example 107]
6.00 to 7.00

Name the recorded pIC50 of the compound listed here: O=C(N1CCC2(CCN(Cc3ccc(C(F)(F)F)cc3)C2)C1)n1cc(Cl)cn1 (stereo not shown) [Example 128]
6.00 to 7.00

Return reported pIC50. Input compound: CC(C)c1ccc(CN2CC3CN(C(=O)n4cc(Cl)cn4)CC3C2)c(N2CCOCC2)c1 (stereo not shown) [Example 106]
5.00 to 6.00

Report pIC50 for NC(=O)c1cnn(C(=O)N2CCC3(CCN(Cc4cccc(C(F)(F)F)c4)C3)C2)c1 (stereo not shown) [Example 41]
≥ 7.00

Give pIC50 for the following compound: Cc1cccc(CN2CCC3(CCN(C(=O)n4cc(C(F)(F)F)cn4)C3)C2)c1 (stereo not shown) [Example 170]
≥ 7.00

Specify reported pIC50 for the compound shown: NC(=O)c1cnn(C(=O)N2CCC3(CCN(Cc4ccc(N5CCOCC5)cc4C(F)(F)F)C3)C2)c1 (stereo not shown) [Example 45]
≥ 7.00

Read off the recorded pIC50 for CN(Cc1ccc(N2CCOCC2)cc1)[C@@H]1C[C@@H]2CN(C(=O)n3cc(Cl)cn3)C[C@@H]2C1 [Example 77]
6.00 to 7.00

Give recorded pIC50. NC(=O)c1cnn(C(=O)N2CC3CN(Cc4ccc(Cl)cc4)CC3C2)c1 (stereo not shown) [Example 16]
≥ 7.00

Indicate the recorded pIC50 value for this compound: CN(Cc1ccc(C(F)(F)F)cc1)[C@H]1C[C@@H]2CN(C(=O)n3cc(Cl)cn3)C[C@@H]2C1 [Example 78]
≥ 7.00

Give reported pIC50 value for CN(Cc1cccc(N2CCOCC2)c1)[C@H]1C[C@@H]2CN(C(=O)n3cc(Cl)cn3)C[C@@H]2C1 [Example 82]
6.00 to 7.00
